- run conditions: Ebola virus entry assay, ratio channel readout
Calls of active or inactive are those of the source. The call rests on the fitted dose curve.
Possible outcomes: yes (active), no (inactive)

INSERT INTO assay_data (molecule, category_label) VALUES
  ('CCCC(C)(COC(N)=O)COC(N)=O', 'no'),
  ('COCC1=C(C(=O)OC(C)OC(=O)OC(C)C)N2C(=O)[C@@H](NC(=O)/C(=N\OC)c3csc(N)n3)[C@H]2SC1 (stereo not given in full)', 'no'),
  ('COC(=O)C(c1ccccc1)C1CCCCN1 (stereo not given)', 'no'),
  ('COc1cc([C@@H]2c3cc4c(cc3[C@@H](O[C@@H]3O[C@@H]5CO[C@@H](c6cccs6)O[C@@H]5[C@H](O)[C@@H]3O)[C@H]3COC(=O)[C@H]23)OCO4)cc(OC)c1O', 'no'),
  ('COc1ccnc(CS(=O)c2nc3cc(OC(F)F)ccc3[nH]2)c1OC (stereo not given)', 'no'),
  ('CC(CCc1ccccc1)NCC(O)c1ccc(O)c(C(N)=O)c1 (stereo not given)', 'no'),
  ('CCOC(=O)C1=C(COCCN)NC(C)=C(C(=O)OC)C1c1ccccc1Cl (stereo not given)', 'no'),
  ('CC(=O)N1CCN(c2ccc(OC[C@H]3CO[C@](Cn4ccnc4)(c4ccc(Cl)cc4Cl)O3)cc2)CC1', 'no'),
  ('CCC1(C)CC(=O)NC1=O (stereo not given)', 'no'),
  ('COc1cc(C)c(/C=C/C(C)=C/C=C/C(C)=C/C(=O)O)c(C)c1C', 'no'),
  ('CCNC(=O)[C@@H]1CCCN1C(=O)[C@H](CCCN=C(N)N)NC(=O)[C@H](CC(C)C)NC(=O)[C@@H](CC(C)C)NC(=O)[C@H](Cc1ccc(O)cc1)NC(=O)[C@H](CO)NC(=O)[C@H](Cc1c[nH]c2ccccc12)NC(=O)[C@H](Cc1cnc[nH]1)NC(=O)[C@@H]1CCC(=O)N1', 'no'),
  ('CN1C(=O)C(O)N=C(c2ccccc2)c2cc(Cl)ccc21 (stereo not given)', 'no'),
  ('CN1C(=O)CC(=O)N(c2ccccc2)c2cc(Cl)ccc21', 'no'),
  ('NCCCCCC(=O)O', 'no'),
  ('CNCCCC12CCC(c3ccccc31)c1ccccc12', 'yes'),
  ('C[C@](N)(Cc1ccc(O)cc1)C(=O)O', 'no'),
  ('O=P(O)(O)C(Sc1ccc(Cl)cc1)P(=O)(O)O', 'no'),
  ('CN/C(=C\[N+](=O)[O-])NCCSCc1csc(CN(C)C)n1', 'no'),
  ('NC(=O)N1c2ccccc2C=Cc2ccccc21', 'no'),
  ('CCC[C@@]1(CCc2ccccc2)CC(O)=C([C@H](CC)c2cccc(NS(=O)(=O)c3ccc(C(F)(F)F)cn3)c2)C(=O)O1', 'no'),
  ('CN1[C@@H]2CC[C@H]1CC(OC(c1ccccc1)c1ccccc1)C2 (stereo not given in full)', 'yes'),
  ('Nc1ccn([C@@H]2CS[C@H](CO)O2)c(=O)n1', 'no'),
  ('CN1CCN2c3ncccc3Cc3ccccc3C2C1 (stereo not given)', 'no'),
  ('COc1cccc2c1C(=O)c1c(O)c3c(c(O)c1C2=O)C[C@@](O)(C(C)=O)C[C@H]3O[C@H]1C[C@H](N)[C@H](O)[C@H](C)O1', 'yes'),
  ('CCCCC(=O)N(Cc1ccc(-c2ccccc2-c2nn[nH]n2)cc1)[C@@H](C(=O)O)C(C)C', 'no'),
  ('CCN1CC(CCN2CCOCC2)C(c2ccccc2)(c2ccccc2)C1=O (stereo not given)', 'no'),
  ('Nc1nc2ccc(OC(F)(F)F)cc2s1', 'no'),
  ('NS(=O)(=O)c1cc(C2(O)NC(=O)c3ccccc32)ccc1Cl (stereo not given)', 'no'),
  ('C[N+]1(C)CCCC(OC(=O)C(O)(c2ccccc2)c2ccccc2)C1 (stereo not given)', 'no'),
  ('N#Cc1ccc(C(c2ccc(C#N)cc2)n2cncn2)cc1', 'no'),
  ('CCCCC(C)(O)C/C=C/[C@H]1[C@H](O)CC(=O)[C@@H]1CCCCCCC(=O)OC (stereo not given in full)', 'no'),
  ('C[N+](C)(C)CC(O)CC(=O)[O-] (stereo not given)', 'no'),
  ('CCCCC[C@H](O)/C=C/[C@@H]1[C@H]2C/C(=C/CCCC(=O)O)O[C@H]2C[C@H]1O', 'no'),
  ('CC(=O)S[C@@H]1CC2=CC(=O)CC[C@]2(C)[C@H]2CC[C@@]3(C)[C@@H](CC[C@@]34CCC(=O)O4)[C@H]12', 'no'),
  ('CC=CC1=C(C(=O)O)N2C(=O)[C@H](NC(=O)[C@H](N)c3ccc(O)cc3)[C@@H]2SC1', 'no'),
  ('CNNCc1ccc(C(=O)NC(C)C)cc1', 'no'),
  ('COc1c(N2C[C@@H]3CCCN[C@@H]3C2)c(F)cc2c(=O)c(C(=O)O)cn(C3CC3)c12', 'no'),
  ('COc1ccc2c(c1)C13CCCC[C@@H]1C(C2)N(C)CC3 (stereo not given in full)', 'no'),
  ('CO/N=C(\C(=O)N[C@@H]1C(=O)N2C(C(=O)O)=C(C[N+]3(C)CCCC3)CS[C@H]12)c1csc(N)n1', 'no'),
  ('Nc1nc(=O)n([C@@H]2CS[C@H](CO)O2)cc1F', 'no');

# credit: PubChem BioAssay (NCATS)
